The values you see were collected from patent US8951975B2.

- System: peptide-pulsed T2 cells
- Measurement notes: IFN-gamma ELISPOT assay on CTLs induced with peptide-pulsed DCs
- Type: cell-based, human
- Particulars: summary statement
Readout label: CTL inducibility / specific CTL activity of CTLs stimulated with the peptide

Substance	System	Value measured
1 (LLIGSTSYV) [compound 1]	peptide-pulsed T2 cells	strong CTL inducibility
3 (FLFNDCLEI) [compound 3]	peptide-pulsed T2 cells	strong CTL inducibility
21 (NLLIGSTSYV) [compound 21]	peptide-pulsed T2 cells	strong CTL inducibility
